Record form. Attribute: IC50 at 24 h. Fill in for each entry.
test: Cytotoxicity against human HEK293T cells assessed as cell viability at 3.125 to 100 uM incubated for 24 hrs by MTT assay; format: toxicity, cell-based, HEK-293T

Give its IC50 at 24 h value. Item: CCCC[C@H](CN(O)C=O)C(=O)N1CCC[C@H]1c1nnc(-c2ccc(-c3ccccn3)cc2)s1
> 100 µM

Repeat with CCCC[C@H](CN(O)C=O)C(=O)N1CCC[C@H]1C(=O)Nc1ccc(F)c[n+]1[O-]
> 100 µM

Repeat with CCCC[C@H](CN(O)C=O)C(=O)N1CCC[C@H]1c1nnc(-c2ccc([N+](=O)[O-])cc2F)s1
> 100 µM

Repeat with CCCC[C@H](CN(O)C=O)C(=O)N1CCC[C@H]1c1nnc(-c2cccs2)s1
> 100 µM

Repeat with CC(=O)NC[C@H]1CN(c2ccc(N3CCOCC3)c(F)c2)C(=O)O1
> 100 µM

Repeat with CCCC[C@H](CN(O)C=O)C(=O)N1CCC[C@H]1c1nnc(-c2ccc(Cl)s2)s1
> 100 µM

----------
tested on: Staphylococcus aureus; test: Antibacterial activity against methicillin-susceptible Staphylococcus aureus ATCC 29213 after 16 to 18 hrs by broth microdilution method; format: functional; conditions: time 16-18 hrs
measured-endpoint: log10 MIC (log10 of the value in µg/mL)
Short version: log10 scale, MIC, µg/mL.

Give its log10 MIC value. Item: O=C(O)c1cn(C2CC2)c2cc(N3CCNCC3)c(F)cc2c1=O
0.90

Repeat with CCCC[C@H](CN(O)C=O)C(=O)N1CCC[C@H]1c1nnc(-c2sccc2C)s1
-0.30

Repeat with CCCC[C@H](CN(O)C=O)C(=O)N1CCC[C@H]1c1nnc(-c2ccc(-c3ccccc3)cc2)s1
0.30

Repeat with CCCC[C@H](CN(O)C=O)C(=O)N1CCC[C@H]1c1nnc(-c2ccc(F)cn2)s1
0.00

Repeat with CC(=O)NC[C@H]1CN(c2ccc(N3CCOCC3)c(F)c2)C(=O)O1
0.00

Repeat with CCCC[C@H](CN(O)C=O)C(=O)N1CCC[C@H]1c1nnc(-c2ccccc2OC)s1
-0.30

Repeat with CCCC[C@H](CN(O)C=O)C(=O)N1CCC[C@H]1c1nnc(-c2ccnc(C(F)(F)F)c2)s1
-0.30

Repeat with CCCC[C@H](CN(O)C=O)C(=O)N1CCC[C@H]1c1nnc(-c2cscn2)s1
0.00

Repeat with CCCC[C@H](CN(O)C=O)C(=O)N1CCC[C@H]1c1nnc(-c2cccs2)s1
-0.60

----------
tested on: Escherichia coli; test: Antibacterial activity against Escherichia coli ATCC 10661 after 16 to 18 hrs by broth microdilution method; type: functional; conditions: time 16-18 hrs
measured-endpoint: MIC (µg/mL)
I only need the number, in µg/mL, no unit after it.

Give its MIC value. Item: CCCC[C@H](CN(O)C=O)C(=O)N1CCC[C@H]1c1nnc(-c2cccs2)s1
4

Repeat with CCCC[C@H](CN(O)C=O)C(=O)N1CCC[C@H]1C(=O)Nc1ccc(F)c[n+]1[O-]
8

Repeat with CCCC[C@H](CN(O)C=O)C(=O)N1CCC[C@H]1c1nnc(-c2ccc(-c3ccccn3)cc2)s1
16

Repeat with CCCC[C@H](CN(O)C=O)C(=O)N1CCC[C@H]1c1nnc(-c2ccc([N+](=O)[O-])cc2F)s1
8

Repeat with CC(=O)NC[C@H]1CN(c2ccc(N3CCOCC3)c(F)c2)C(=O)O1
16
